Measured TGI values are reported for all entries that follow.
Test system: SF-539 CNS
Test: NCI tumour cell line growth inhibition, 48 h
propertyLabel: TGI

N#Cc1nc(Cc2ccccc2)oc1N ... > 100 µM
CC(=S)NNC(=O)c1ccncc1 ... > 100 µM
O=C(Nc1ccc(Nc2ccncc2)cc1)c1ccc(Nc2ccnc3ccc([N+](=O)[O-])cc23)cc1 ... > 100 µM
C=C(Br)C(Cl)(CBr)CCC(Br)C(C)(C)Cl (centres undefined) ... > 10 µM
CCOC(=O)c1ccc(Nc2nc3ccc(C(F)(F)F)cc3nc2-c2ccccc2)cc1 ... > 100 µM
O=C(O)c1ccc([N+](=O)[O-])c2c(=O)c3ccccc3[nH]c12 ... > 100 µM
COc1ccccc1/C=C1/Sc2scc(CC(=O)Nc3ccccc3)[n+]2C1=O ... > 100 µM
C/C(=C1/N=C(c2cc([N+](=O)[O-])ccc2Cl)N(C2=CC=C(Cl)CC2)C1=O)c1cc2ccccc2oc1=O ... > 100 µM
CCS(=O)(=O)c1ccc(OC)c(Nc2nccc(N(C)c3ccc4c(C)[nH]nc4c3)n2)c1 ... 9.86 µM
Cc1ccc(NC(=S)NNC(=O)c2cc(-c3ccccc3)nc3ccccc23)cc1C ... 40.3 µM
CN(C)CCCNC(=O)CNC(=O)c1cc(NC(=O)c2cc(NC(=O)c3cc(NC(=O)CCNC(=O)c4cc(NC(=O)c5cc(NC(=O)c6nccn6C)cn5C)cn4C)cn3C)cn2C)cn1C ... > 100 µM
CC1OC(OC2C(Oc3cc(O)c4c(=O)cc(-c5ccc(O)cc5)oc4c3)OC(CO)C(O)C2O)C(O)C(O)C1O (centres undefined) ... > 100 µM
C=CCOc1ccc(C2c3c([nH][nH]c3=O)CC(C)(O)C2C(=O)OC)cc1OC (centres undefined) ... > 100 µM
COc1ccc(CN=C2Nc3ccncc3S(=O)(=O)N2c2ccccc2)cc1 ... 33.9 µM
O=C(Nc1nccs1)c1cc(C2=CC=CC([N+](=O)[O-])C=C2)nc(=S)[nH]1 (centres undefined) ... > 100 µM
Cn1c2ccc([N+](=O)[O-])cc2c(=O)c2c(O)cc(O)cc21 ... 55.2 µM
CCOC(=O)/C=C/[C@H](O[Si](c1ccccc1)(c1ccccc1)c1ccccc1)C(C)(C)C ... > 31.6 µM
COC[C@H]1OC(=O)c2coc3c2[C@@]1(C)C1=C(C3=O)[C@@H]2CCC(=O)[C@@]2(C)C[C@H]1OC(C)=O ... 31 µM
CC(=O)NC1CCC(NC(=O)OC(C)(C)C)C(NC(=O)OC(C)(C)C)C1 (centres undefined) ... > 100 µM
